Biological target: T1, Cav3.1 (Homo sapiens, UniProt O43497)
T1 construct: expressed in transfected cells; host or cells: HEK-293, stably transfected
T1 sequence (O43497 whole entry): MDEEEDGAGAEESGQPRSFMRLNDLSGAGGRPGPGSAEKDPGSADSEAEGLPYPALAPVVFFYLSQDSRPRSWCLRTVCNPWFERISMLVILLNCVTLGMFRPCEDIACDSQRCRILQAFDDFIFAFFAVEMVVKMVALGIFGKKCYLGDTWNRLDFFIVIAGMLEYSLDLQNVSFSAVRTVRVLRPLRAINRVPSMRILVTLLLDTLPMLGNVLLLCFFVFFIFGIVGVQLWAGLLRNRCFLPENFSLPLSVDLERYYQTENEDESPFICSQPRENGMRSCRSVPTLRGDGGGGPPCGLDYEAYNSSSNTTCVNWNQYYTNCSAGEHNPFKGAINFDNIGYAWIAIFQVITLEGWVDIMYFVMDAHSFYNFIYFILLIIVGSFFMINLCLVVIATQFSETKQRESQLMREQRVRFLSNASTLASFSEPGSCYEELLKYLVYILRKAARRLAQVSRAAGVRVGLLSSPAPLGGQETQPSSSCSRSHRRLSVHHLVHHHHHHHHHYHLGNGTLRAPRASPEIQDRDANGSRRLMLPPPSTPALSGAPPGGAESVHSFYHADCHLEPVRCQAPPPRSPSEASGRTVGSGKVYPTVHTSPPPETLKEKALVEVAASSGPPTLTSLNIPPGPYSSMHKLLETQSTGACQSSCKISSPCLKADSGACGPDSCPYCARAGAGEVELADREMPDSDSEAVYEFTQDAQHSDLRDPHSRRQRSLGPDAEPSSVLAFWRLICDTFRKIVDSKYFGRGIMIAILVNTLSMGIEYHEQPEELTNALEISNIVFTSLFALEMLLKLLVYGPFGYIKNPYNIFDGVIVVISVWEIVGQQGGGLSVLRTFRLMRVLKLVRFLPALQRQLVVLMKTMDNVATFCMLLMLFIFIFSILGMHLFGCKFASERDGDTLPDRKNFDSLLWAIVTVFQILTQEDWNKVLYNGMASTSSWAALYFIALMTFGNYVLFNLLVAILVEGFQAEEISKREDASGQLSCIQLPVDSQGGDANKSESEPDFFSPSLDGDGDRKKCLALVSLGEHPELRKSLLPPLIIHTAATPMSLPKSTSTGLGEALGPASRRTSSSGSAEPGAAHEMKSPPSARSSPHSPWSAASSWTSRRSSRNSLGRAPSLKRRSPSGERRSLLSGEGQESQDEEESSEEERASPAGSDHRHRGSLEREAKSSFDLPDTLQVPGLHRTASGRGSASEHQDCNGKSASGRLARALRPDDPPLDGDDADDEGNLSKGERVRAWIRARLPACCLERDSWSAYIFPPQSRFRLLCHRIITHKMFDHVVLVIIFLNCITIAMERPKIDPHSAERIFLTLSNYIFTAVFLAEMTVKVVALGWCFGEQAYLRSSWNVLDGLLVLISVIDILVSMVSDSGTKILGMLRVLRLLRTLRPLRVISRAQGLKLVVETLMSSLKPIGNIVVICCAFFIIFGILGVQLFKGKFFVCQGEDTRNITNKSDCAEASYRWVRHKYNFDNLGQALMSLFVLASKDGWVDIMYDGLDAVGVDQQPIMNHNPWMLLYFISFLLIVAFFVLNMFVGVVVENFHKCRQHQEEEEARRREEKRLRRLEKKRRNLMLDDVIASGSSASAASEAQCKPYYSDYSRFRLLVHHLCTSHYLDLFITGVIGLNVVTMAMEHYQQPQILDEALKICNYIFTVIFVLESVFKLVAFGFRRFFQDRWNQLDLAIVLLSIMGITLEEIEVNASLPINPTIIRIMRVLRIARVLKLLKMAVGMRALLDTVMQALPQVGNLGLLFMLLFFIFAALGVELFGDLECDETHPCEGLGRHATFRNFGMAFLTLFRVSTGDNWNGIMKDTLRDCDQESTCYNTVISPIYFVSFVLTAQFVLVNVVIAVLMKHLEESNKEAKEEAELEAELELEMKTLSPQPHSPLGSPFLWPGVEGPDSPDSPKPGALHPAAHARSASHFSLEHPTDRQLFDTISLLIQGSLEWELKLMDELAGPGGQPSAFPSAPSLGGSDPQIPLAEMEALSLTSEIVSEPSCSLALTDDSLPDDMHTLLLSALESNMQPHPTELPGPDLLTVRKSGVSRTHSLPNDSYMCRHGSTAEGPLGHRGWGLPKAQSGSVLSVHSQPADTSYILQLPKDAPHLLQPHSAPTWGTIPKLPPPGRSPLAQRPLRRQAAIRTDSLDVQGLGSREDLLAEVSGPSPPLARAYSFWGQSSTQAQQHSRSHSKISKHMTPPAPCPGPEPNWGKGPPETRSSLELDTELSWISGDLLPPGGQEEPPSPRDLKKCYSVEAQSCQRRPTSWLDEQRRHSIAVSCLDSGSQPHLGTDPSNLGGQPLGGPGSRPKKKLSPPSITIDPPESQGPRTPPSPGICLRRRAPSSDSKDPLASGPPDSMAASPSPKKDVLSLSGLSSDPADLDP
Assay: Whole-cell patch clamp of Cav3.1 dependent LVA calcium current in HEK-293/Cav3.1 cells transiently transfected with γ subunits (Example 1)
Type: cell-based
Conditions: Table 2
Parameter: Deactivation tau @ −100 mV, Fast. Scope: all listed entries.

Can you share its Deactivation tau @ −100 mV, Fast? I mean this molecule: γ4: rat calcium channel γ4 subunit (AF361341), SEQ ID NO:47 (protein, listed as Rattus norvegicus) MVRCDRGLQMLLTTAGAFAAFSLMAIAIGTDYWLYSSAHICNGTNLTMDDGPPPRRARGDLTHSGLWRVCCIEGIYKGHCFRINHFPEDNDYDHDSSEYLLRIVRASSVFPILSTILLLLGGLCIGAGRIYSRKNNIVLSAGILFVAAGLSNIIGIIVYISSNTGDPSDKRDEDKKNHYNYGWSFYFGALSFIVAETVGVLAVNIYIEKNKELRFKTKREFLKASSSSPYSRMPSYRYRRRRSRSSSRSTEASPSRDASPVGLKITGAIPMGELSMYTLSREPLKVTTAASYSPDQDAGFLQMHDFFQQDLKEGFHVSMLNRRTTPV
1.84 ± 0.28 (n = 8) ms

Can you check γ6S: rat calcium channel γ6 subunit, short isoform (AF361344), SEQ ID NO:49 (protein, listed as Rattus norvegicus) MMWSNFFMQEEDRRRTAVGRRRAQEQQNLGLTPEREGKIKLGLLVAIVGATLAVLAVGTEFWVELNTYKTNGSAVCEAAHLGLWKVCIKRLWQADVPAGRETCGPAELPGEANCTYFKFFTTGENAHIFQRTTKKGLLLFVSLEVFRHSVRALLQGVNPETPPAPRLAYEYSWSLGCGVGAGLILLLGGVCFLLLTLPSWPWRSLCPKRGGPTA next?
1.20 ± 0.06 (n = 3) ms

Can you check γ7: rat calcium channel γ7 subunit (AF361345), SEQ ID NO:50 (protein, listed as Rattus norvegicus) MSHCSSRALTLLSSVFGACGLLLVGIAVSTDYWLYMEEGTVLPQNQTTEVKMALHAGLWRVCFFAGREKGRCVASEYFLEPEINLVTENTENILKTVRTATPFPMVSLFLVFTAFVISNIGHIRPQRTILAFVSGIFFILSGLSLVVGLVLYISSINDEVMNRPSSSEQYFHYRYGWSFAFAASSFLLKEGAGVMSVYLFTKRYAEEEMYRPHPAFYRPRLSDCSDYSGQFLQPEAWRRGRSPSDISSDVSIQMTQNYPPAIKYPDHLHISTSPC next?
1.30 ± 0.10 (n = 11) ms

Origin of values: patent US8022177B2
